The values you see were collected from ChEMBL document CHEMBL3997829.

Experiment: Plasma concentration in Sprague-Dawley rat at 10 mg/kg, po at 0.3 hrs
Assay type: ADME, organism-based
Listing of recorded concentration at 0.3 h by entry.
READOUT_NAME: concentration at 0.3 h (nM)

{"SMILES_RECORD": "Cc1ccc(-n2nccn2)c(C(=O)N2C[C@@H]3CN(c4nc5ccccc5o4)C[C@@H]3C2)c1", "VALUE_MEASURED": 8800}
{"SMILES_RECORD": "Cc1ccc(-n2nccn2)c(C(=O)N2C[C@@H]3CN(c4nc5cc(Cl)ccc5o4)C[C@@H]3C2)c1", "VALUE_MEASURED": 3370}
{"SMILES_RECORD": "Cc1ccc(-n2nccn2)c(C(=O)N2C[C@@H]3CN(c4nc5cc(F)ccc5o4)C[C@@H]3C2)c1", "VALUE_MEASURED": 1260}
{"SMILES_RECORD": "Cc1ccc(-n2nccn2)c(C(=O)N2C[C@@H]3CN(c4ncc5cc(F)ccc5n4)C[C@@H]3C2)c1", "VALUE_MEASURED": 567}

###

Target: Orexin receptor type 2 (Homo sapiens)
Sequence (O43614 whole entry): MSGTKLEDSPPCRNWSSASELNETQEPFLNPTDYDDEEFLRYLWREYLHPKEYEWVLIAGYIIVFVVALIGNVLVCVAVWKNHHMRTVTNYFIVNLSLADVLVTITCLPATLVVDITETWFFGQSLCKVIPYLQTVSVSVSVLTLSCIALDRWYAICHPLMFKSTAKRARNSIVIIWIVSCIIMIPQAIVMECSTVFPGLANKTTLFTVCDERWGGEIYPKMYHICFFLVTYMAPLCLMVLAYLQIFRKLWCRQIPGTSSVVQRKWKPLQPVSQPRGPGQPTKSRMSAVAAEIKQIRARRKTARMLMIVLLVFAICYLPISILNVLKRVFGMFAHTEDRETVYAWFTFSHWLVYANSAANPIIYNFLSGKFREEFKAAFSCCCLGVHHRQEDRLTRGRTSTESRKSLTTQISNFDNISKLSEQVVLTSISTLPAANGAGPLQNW
Experiment: Antagonist activity at human orexin 2 receptor expressed in HEK293 cells assessed as inhibition of orexin-induced calcium mobilization after 60 mins by FLIPR assay
pIC50: −log10 of the molar value.
# label = 1 if pIC50 >= 6 else 0

{"COMPOUND": "Cc1ccc(-n2nccn2)c(C(=O)N2CCC3CN(c4nc5cc(Cl)ccc5o4)CC32)c1 (configuration not stated)", "QUALITATIVE_LABEL": 1}
{"COMPOUND": "COc1ccc(-n2nccn2)c(C(=O)N2C[C@@H]3CN(c4nc5cc(Cl)ccc5o4)C[C@@H]3C2)c1", "QUALITATIVE_LABEL": 1}
{"COMPOUND": "Cc1ccc(-n2nccn2)c(C(=O)N2C[C@@H]3CN(c4nc5cc(C(F)(F)F)ccc5o4)C[C@@H]3C2)c1", "QUALITATIVE_LABEL": 1}
{"COMPOUND": "Cc1ccc(-n2nccn2)c(C(=O)N2C[C@@H]3CN(c4nc5cc(F)ccc5o4)C[C@@H]3C2)c1", "QUALITATIVE_LABEL": 1}
{"COMPOUND": "Cc1ccc(-n2nccn2)c(C(=O)N2C[C@@H]3CN(c4nc5cc(Cl)ccc5o4)C[C@@H]3C2)c1", "QUALITATIVE_LABEL": 1}
{"COMPOUND": "Cc1ccc(-n2nccn2)c(C(=O)N2C[C@@H]3CN(c4ncnc5ccccc45)C[C@@H]3C2)c1", "QUALITATIVE_LABEL": 0}
{"COMPOUND": "Cc1ccc(-n2nccn2)c(C(=O)N2C[C@@H]3CN(c4nc5cc(C)ccc5o4)C[C@@H]3C2)c1", "QUALITATIVE_LABEL": 1}
{"COMPOUND": "COc1ccc2oc(N3C[C@H]4CN(C(=O)c5cc(C)ccc5-n5nccn5)C[C@H]4C3)nc2c1", "QUALITATIVE_LABEL": 1}
{"COMPOUND": "Cc1ccc(-n2nccn2)c(C(=O)N2C[C@@]3(F)CN(c4nc5ccccc5o4)C[C@@]3(F)C2)c1", "QUALITATIVE_LABEL": 1}
{"COMPOUND": "Cc1ccc(-n2nccn2)c(C(=O)N2CCCC3CN(c4nc5cc(Cl)ccc5o4)CC32)c1 (configuration not stated)", "QUALITATIVE_LABEL": 0}
{"COMPOUND": "Cc1ccc(-n2nccn2)c(C(=O)N2C[C@@H]3CN(c4nc(C)c(C)c(C)n4)C[C@@H]3C2)c1", "QUALITATIVE_LABEL": 0}
{"COMPOUND": "Cc1ccc(-n2nccn2)c(C(=O)N2CC3CCCN(c4nc5cc(Cl)ccc5o4)C3C2)c1 (configuration not stated)", "QUALITATIVE_LABEL": 0}

###

Listing of recorded Drug uptake by entry.
Tested on: Brain
Assay: Drug uptake in Sprague-Dawley rat brain at 10 mg/kg, po at 1 hr
Assay type: ADME, organism-based
Conditions: in vivo

{"SMILES_RECORD": "Cc1ccc(-n2nccn2)c(C(=O)N2C[C@@H]3CN(c4nc5ccccc5o4)C[C@@H]3C2)c1", "TEST_TARGET": "Brain", "Drug uptake, nmol/kg": 429}
{"SMILES_RECORD": "Cc1ccc(-n2nccn2)c(C(=O)N2C[C@@H]3CN(c4nc5cc(Cl)ccc5o4)C[C@@H]3C2)c1", "TEST_TARGET": "Brain", "Drug uptake, nmol/kg": 376}
{"SMILES_RECORD": "Cc1ccc(-n2nccn2)c(C(=O)N2C[C@@H]3CN(c4ncc5cc(F)ccc5n4)C[C@@H]3C2)c1", "TEST_TARGET": "Brain", "Drug uptake, nmol/kg": 43}
{"SMILES_RECORD": "Cc1ccc(-n2nccn2)c(C(=O)N2C[C@@H]3CN(c4nc5cc(F)ccc5o4)C[C@@H]3C2)c1", "TEST_TARGET": "Brain", "Drug uptake, nmol/kg": 42}

###

Listing of recorded Drug uptake by entry.
Tested on: Brain
Test: Drug uptake in Sprague-Dawley rat brain at 10 mg/kg, po at 0.3 hrs
Format: ADME, organism-based
Settings: in vivo
READOUT_NAME: Drug uptake (nmol/kg)

{"SMILES_RECORD": "Cc1ccc(-n2nccn2)c(C(=O)N2C[C@@H]3CN(c4nc5ccccc5o4)C[C@@H]3C2)c1", "TEST_TARGET": "Brain", "READOUT_NAME": "Drug uptake", "VALUE_MEASURED": 1134}
{"SMILES_RECORD": "Cc1ccc(-n2nccn2)c(C(=O)N2C[C@@H]3CN(c4nc5cc(Cl)ccc5o4)C[C@@H]3C2)c1", "TEST_TARGET": "Brain", "READOUT_NAME": "Drug uptake", "VALUE_MEASURED": 643}
{"SMILES_RECORD": "Cc1ccc(-n2nccn2)c(C(=O)N2C[C@@H]3CN(c4ncc5cc(F)ccc5n4)C[C@@H]3C2)c1", "TEST_TARGET": "Brain", "READOUT_NAME": "Drug uptake", "VALUE_MEASURED": 80}
{"SMILES_RECORD": "Cc1ccc(-n2nccn2)c(C(=O)N2C[C@@H]3CN(c4nc5cc(F)ccc5o4)C[C@@H]3C2)c1", "TEST_TARGET": "Brain", "READOUT_NAME": "Drug uptake", "VALUE_MEASURED": 74}

###

Assay: Thermodynamic solubility of the compound in phosphate buffer at pH 7.4 by HPLC method
Assay type: physicochemical
Conditions: read-out: Therm_solubility
Listing of recorded solubility thermodynamic by entry.
READOUT_NAME: solubility thermodynamic (µM)

{"SMILES_RECORD": "Cc1ccc(-n2nccn2)c(C(=O)N2C[C@@H]3CN(c4nc5ccccc5o4)C[C@@H]3C2)c1", "INEQUALITY_SIGN": "=", "VALUE_MEASURED": 41}
{"SMILES_RECORD": "Cc1ccc(-n2nccn2)c(C(=O)N2C[C@@H]3CN(c4ncc5cc(F)ccc5n4)C[C@@H]3C2)c1", "INEQUALITY_SIGN": "=", "VALUE_MEASURED": 2.6}
{"SMILES_RECORD": "Cc1ccc(-n2nccn2)c(C(=O)N2C[C@@H]3CN(c4nc5cc(F)ccc5o4)C[C@@H]3C2)c1", "INEQUALITY_SIGN": "<", "VALUE_MEASURED": 2}
{"SMILES_RECORD": "Cc1ccc(-n2nccn2)c(C(=O)N2C[C@@H]3CN(c4nc5cc(Cl)ccc5o4)C[C@@H]3C2)c1", "INEQUALITY_SIGN": "<", "VALUE_MEASURED": 2}

###

Molecular target: Orexin receptor type 2 (Homo sapiens)
Test: Antagonist activity at human orexin 2 receptor expressed in HEK293 cells assessed as inhibition of orexin-induced calcium mobilization after 60 mins by FLIPR assay
Format: functional, cell-based
pIC50: −log10 of the molar value.

{"COMPOUND": "O=C(c1cc(OC(F)(F)F)ccc1-n1nccn1)N1C[C@@H]2CN(c3nc4cc(Cl)ccc4o3)C[C@@H]2C1", "TEST_TARGET": "Orexin receptor type 2 (Homo sapiens)", "INEQUALITY_SIGN": "=", "pIC50": 5.82}
{"COMPOUND": "Cc1ccc(-n2nccn2)c(C(=O)N2C[C@@]3(C)CN(c4nc5cc(Cl)ccc5o4)C[C@@]3(C)C2)c1", "TEST_TARGET": "Orexin receptor type 2 (Homo sapiens)", "INEQUALITY_SIGN": "=", "pIC50": 5.22}
{"COMPOUND": "O=C(c1ccccc1-n1nccn1)N1C[C@@H]2CN(c3nc4cc(Cl)ccc4o3)C[C@@H]2C1", "TEST_TARGET": "Orexin receptor type 2 (Homo sapiens)", "INEQUALITY_SIGN": "=", "pIC50": 6.62}
{"COMPOUND": "Cc1ccc(-n2nccn2)c(C(=O)N2C[C@@H]3CN(c4nc(-c5cccc(Cl)c5)co4)C[C@@H]3C2)c1", "TEST_TARGET": "Orexin receptor type 2 (Homo sapiens)", "INEQUALITY_SIGN": "=", "pIC50": 5.55}
{"COMPOUND": "Cc1ccc(-n2nccn2)c(C(=O)N2CC3CCN(c4nc5cc(Cl)ccc5o4)C3C2)c1 (stereo unspecified)", "TEST_TARGET": "Orexin receptor type 2 (Homo sapiens)", "INEQUALITY_SIGN": "<", "pIC50": 5.00}
{"COMPOUND": "Cc1ccc(-n2nccn2)c(C(=O)N2C[C@H]3CN(Cc4nc5cc(Cl)ccc5o4)C[C@H]3C2)c1", "TEST_TARGET": "Orexin receptor type 2 (Homo sapiens)", "INEQUALITY_SIGN": "=", "pIC50": 5.74}
{"COMPOUND": "Cc1ccc(-n2nccn2)c(C(=O)N2C[C@@H]3CN(c4ncc5cc(F)ccc5n4)C[C@@H]3C2)c1", "TEST_TARGET": "Orexin receptor type 2 (Homo sapiens)", "INEQUALITY_SIGN": "=", "pIC50": 6.97}
{"COMPOUND": "Cc1ccc(-n2nccn2)c(C(=O)N2C[C@@H]3CN(c4nc5ccccc5o4)C[C@@H]3C2)c1", "TEST_TARGET": "Orexin receptor type 2 (Homo sapiens)", "INEQUALITY_SIGN": "=", "pIC50": 6.75}
{"COMPOUND": "Cc1ccc(-n2nccn2)c(C(=O)N2C[C@@]3(F)CN(c4nc5cc(Cl)ccc5o4)C[C@@]3(F)C2)c1", "TEST_TARGET": "Orexin receptor type 2 (Homo sapiens)", "INEQUALITY_SIGN": "=", "pIC50": 6.19}
{"COMPOUND": "Cc1ccc(-n2nccn2)c(C(=O)N2C[C@@H]3CN(c4nc5cc(OC(F)(F)F)ccc5o4)C[C@@H]3C2)c1", "TEST_TARGET": "Orexin receptor type 2 (Homo sapiens)", "INEQUALITY_SIGN": "=", "pIC50": 5.33}
{"COMPOUND": "Cc1ccc(-n2nccn2)c(C(=O)N2CC3CN(c4nc5cc(Cl)ccc5o4)CC3(C)C2)c1 (stereo unspecified)", "TEST_TARGET": "Orexin receptor type 2 (Homo sapiens)", "INEQUALITY_SIGN": "=", "pIC50": 5.96}
